test system: MCF7 breast; test: NCI-60 one-dose screen, 48 h (100 = growth as untreated, 0 = no growth, -100 = all killed); conditions: 10 µM unless noted
This is part of a sample that, as a whole, favours compounds with a hit. Of some 83,000 tested, about 20% had one in any assay.
Entry flag: criterion met if growth reaches 80%; criterion not met if it does not.

1. CS(CCCCN=C=S)=NC(=O)c1c(F)c(F)c(F)c(F)c1F (centres undefined) = criterion not met
2. COc1cc(C2CC(=O)c3c(C)nn(-c4nc5ccccc5[nH]4)c3C2)cc(OC)c1OC (centres undefined) = criterion not met
3. C[C@@H]1CC[C@@H]2[C@@H]1[C@H](OC(=O)/C=C/c1ccccc1)[C@]1(C3CCCCC3)C[C@@H](OC(=O)CO)[C@@]2(C)O1 = criterion not met
4. Oc1cc(O)c2c(=S)cc(-c3ccc(Cl)cc3)oc2c1 = criterion not met
5. CCOC(=O)c1c2c(n3ccc(NC(=O)CCN4CCOCC4)cc13)C(=O)c1ncccc1C2=O = criterion not met
6. Cc1ccc(NC(=O)c2sc3nc4c(cc3c2N)C(=O)CCC4)cc1C = criterion not met
7. CCOC(=O)c1c2c(n3ccc(NC(=O)CCN4CCCCC4)cc13)C(=O)c1ncccc1C2=O = criterion not met
8. COC1=CC(=O)C(OC)=C(OC)C1=O = criterion met
9. COCCOC(=O)C1=C(C)NC(=S)NC1c1ccc2c(c1)OCO2 (centres undefined) = criterion met
10. CCCC(=O)Oc1ccc(/C(=C(/CC)Cc2ccccc2)c2ccc(OCCN3CCCC3)cc2)cc1 = criterion not met
11. O=C(/C=C/c1cc2ccccc2[nH]c1=O)/C=C/c1cc2ccccc2[nH]c1=O = criterion not met
12. CS(=O)(=O)c1ccc(-c2cnc3ccc(-c4cccc(S(C)(=O)=O)c4)nn23)cc1 = criterion not met
13. CC1=C(NCCN2CCCC2)C(=O)c2c(OCc3ccc(C(F)(F)F)cc3)cccc2C1=O = criterion not met
14. CC1=N/C(=C\c2cccc(Br)c2)C(=O)O1 = criterion met
15. COc1cccc(-c2cn3c(ccc4ccccc43)n2)c1 = criterion not met
16. COc1cccc(/C=C\C(=O)c2ccccc2)c1 = criterion not met
17. COc1ccc2nc3cc(Cl)ccc3c(N3CCN(c4nccc(Nc5ccccc5)n4)CC3)c2c1 = criterion not met
18. COc1ccc(/C=C2\N=C3Sc4cc(Cl)ccc4C(=O)N3C2=O)cc1 = criterion met
19. CSc1nc2sc3c(c2c(=O)n1-c1ccc(C(C)C)cc1)CCC(=O)C3 = criterion not met
20. O=C(CO[N+](=O)[O-])Nc1ccc(C(=O)/C=C/c2ccc3c(c2)OCO3)cc1 = criterion not met
21. CCOC(=O)C(Cc1cc(I)c(O)c(I)c1)NC(=O)c1ccccc1 (centres undefined) = criterion met
22. Oc1c(Cl)cc(Cl)cc1CNc1nccnn1 = criterion met
23. Nc1cc(O)cc2cccnc12 = criterion not met
24. CCCCCCCCSC1=CC(=O)C(OC)=C(OC)C1=O = criterion not met
25. O=C1/C(=C\c2cn(C(=O)c3ccc(Cl)cc3)c3ccccc23)c2ccccc2N1c1c(Cl)cccc1Cl = criterion met
26. Cc1ccc(Nc2c(C(N)=O)cnc3ccc(-c4csc(N)n4)cc23)cc1 = criterion met
27. C=C1CC[C@@H]2[C@](C)(COC(C)=O)[C@H](OC(C)=O)CC[C@@]2(C)[C@@H]1CC(Nc1ccc(S(=O)(=O)Nc2ccc(Cl)nn2)cc1)C1=CCOC1=O (some centres undefined) = criterion not met
28. COc1ccc(N(Cc2cc(OC)c(OC)c(OC)c2)C2OC(=O)c3ccccc32)cc1 (centres undefined) = criterion not met
29. Cn1c(=O)c2c(ncn2CC[N+](C)(C)C)n(C)c1=O = criterion met
